Value source: ChEMBL document CHEMBL2380261

- MEASUREMENT_PROTOCOL: Cytotoxicity against human Huh7.5 cells assessed as cell viability after 48 hrs by Alamar blue assay
READOUT_NAME: CC50 at 48 h (nM)
# unit: nM | format: bare number

Some entries whose results are on file:
CCOS(=O)(=O)/C=C/[C@H](Cc1ccccc1)NC(=O)OC(C)(C)C | 3500
COC(=O)[C@H](C)NC(=O)CCC(=O)/C=C/c1cccnc1 | 2110

# compound C[C@H](NC(=O)CCC(=O)/C=C/c1ccc2c(c1)OCO2)C(=O)O ; its CC50 at 48 h = 12100

# compound COC(=O)[C@H](C)NC(=O)CCC(=O)/C=C/c1ccccc1 ; its CC50 at 48 h = 1320

# compound CCOS(=O)(=O)/C=C/[C@H](Cc1ccccc1)NC(C)=O ; its CC50 at 48 h = 7910

# compound COC(=O)[C@@H](NC(=O)CCC(=O)/C=C/c1ccccc1)C(C)C ; its CC50 at 48 h = 1480

# compound COC(=O)[C@@H](NC(=O)CCC(=O)/C=C/c1ccc2c(c1)OCO2)C(C)C ; its CC50 at 48 h = 1390
